Where do the numbers come from? From patent US11492325B2.

Test system: normal human induced pluripotent stem cell (hiPSC) cardiomyocyte
Conditions: normal hiPSC cardiomyocytes
Counter-ions that a name gives are not always drawn.
recorded metric: WT-EAD Dose (µM)
Just the number please, in µM, no unit attached.

Solved entries (count: 10):
Cc1cccc(OCC(C)N)c1.Cl (stereo not drawn) | 66
Cc1cccc(Cl)c1OC[C@H](C)N [Compound 57, hydrochloride] | 200
CCNC(C)COc1c(C)cccc1C (stereo not drawn) | 133
CCCNC(C)COc1c(C)cccc1C (stereo not drawn) | 66
CNC(C)COc1c(C)cccc1C (stereo not drawn) | 22
C[C@H](N)COc1ccccc1Cl | 133
Cc1cccc(C)c1OCC(N)C1CC1 (stereo not drawn) | 66
Cc1ccc(OCC(N)C2CC2)c(C)c1.Cl (stereo not drawn) | 66
Cc1cccnc1OCC(N)c1ccccc1 (stereo not drawn) | 133
C[C@@H](N)COc1ccccc1Cl | 200

[Q] # return recorded WT-EAD Dose for input Cc1cc(OCC(N)c2ccccc2)cc(C)n1.Cl (stereo not drawn)
[A] 200

[Q] # return recorded WT-EAD Dose for input Cc1cccc(C)c1OCC(C)N (racemic) [Compound 1, Mexiletine, reference compound]
[A] 200

[Q] # return recorded WT-EAD Dose for input "C[C@H](N)COc1ccccc1.Cl"
[A] 133

[Q] # return recorded WT-EAD Dose for input COc1ccccc1OCC(N)c1ccccc1 (stereo not drawn)
[A] 7.4

[Q] # return recorded WT-EAD Dose for input "Cc1cccc(Cl)c1OC[C@@H](C)N"
[A] 133

[Q] # return recorded WT-EAD Dose for input Cc1cccc2c1OCC(C1CC1)NC2.Cl (stereo not drawn)
[A] 133

[Q] # return recorded WT-EAD Dose for input "Cc1cc(C)cc(OC[C@H](N)C2CC2)c1.Cl"
[A] 66

[Q] # return recorded WT-EAD Dose for input Cc1cccc(C)c1OCC(C)NCCc1ccccc1 (stereo not drawn)
[A] 22

[Q] # return recorded WT-EAD Dose for input Cc1ccc(OCC(C)N)c(C)c1.Cl (stereo not drawn)
[A] 133

[Q] # return recorded WT-EAD Dose for input COc1ccccc1OCC(C)N (stereo not drawn)
[A] 133

[Q] # return recorded WT-EAD Dose for input Cc1cccc(C)c1OC[C@@H](C)N [Compound 2a, (R)-(−)-Mexiletine Hydrochloride, reference compound]
[A] 200

====

Tested on: Male BALBc mice
Details: mice, 100 mg/kg, enantiomers
recorded metric: behavioral effects at 100 mg/kg

Cl.NC(COc1cc(C(F)(F)F)cc(C(F)(F)F)c1)c1ccccc1 (stereo in doubt) [(S)-78] | Minor lethargy
Cl.NC(COc1ccccc1C(F)(F)F)c1ccccc1 (stereo in doubt) [(S)-82] | Minor lethargy
Cc1cc(C)cc(OCC(N)c2ccccc2)c1.Cl (stereo in doubt) [(S)-70] | Minor lethargy

====

Tested on: normal human induced pluripotent stem cell (hiPSC) cardiomyocyte
Conditions: normal hiPSC cardiomyocytes
Reported Cessation of Beating is given for each of the following compounds.
Just the number please, in µM, no unit attached.

Solved entries (count: 4):
Cc1ccc(OCC(N)c2ccccc2)cc1C.Cl (stereo not shown) | 66
CCCc1ccccc1OCC(C)N (stereo not shown) | 200
Cc1cc(C)cc(OCC(N)c2ccccc2)c1.Cl (racemic) | 66
COCCNC(COc1ccccc1C)c1ccccc1.Cl (stereo not shown) | 133

[Q] Provide Cessation of Beating, system normal human induced pluripotent stem cell (hiPSC) cardiomyocyte, entry CCc1ccccc1OCC(N)c1ccccc1 (stereo not shown)
[A] 66

[Q] Provide Cessation of Beating, system normal human induced pluripotent stem cell (hiPSC) cardiomyocyte, entry COc1ccc(C(N)COc2c(C)cccc2C)cc1 (stereo not shown)
[A] 66

[Q] Provide Cessation of Beating, system normal human induced pluripotent stem cell (hiPSC) cardiomyocyte, entry Cc1ccc(C(N)COc2c(C)cccc2C)cc1 (stereo not shown)
[A] 66

[Q] Provide Cessation of Beating, system normal human induced pluripotent stem cell (hiPSC) cardiomyocyte, entry Cc1ccc(OCC(N)C2CC2)c(C)c1.Cl (stereo not shown)
[A] 200

[Q] Provide Cessation of Beating, system normal human induced pluripotent stem cell (hiPSC) cardiomyocyte, entry "Cc1cc(C)cc(OC[C@@H](N)C2CC2)c1.Cl"
[A] 200

[Q] Provide Cessation of Beating, system normal human induced pluripotent stem cell (hiPSC) cardiomyocyte, entry Cc1ccc(OCC(N)c2ccccc2)c(C)c1.Cl (stereo not shown)
[A] 66

[Q] Provide Cessation of Beating, system normal human induced pluripotent stem cell (hiPSC) cardiomyocyte, entry Cc1ccc(OCC(N)C2CC2)cc1C.Cl (stereo not shown)
[A] 66

[Q] Provide Cessation of Beating, system normal human induced pluripotent stem cell (hiPSC) cardiomyocyte, entry Cc1cccc(C)c1OCC(C)NC(=O)c1ccccc1 (stereo not shown)
[A] 66
